Each recorded value in this set is attributed to ChEMBL document CHEMBL1124865.

Test system: Klebsiella pneumoniae
EXPERIMENT: Antibacterial activity against Klebsiella pneumoniae X26
Assay type: functional
ASSAY SETUP: Klebsiella pneumoniae; read-out: MIC
METRIC NAME: MIC (µg/mL)
Please state the figure in µg/mL; there is no need to write the unit.

See these solved cases before continuing.
>  <MOL SMILES>
CO/N=C(\C(=O)N[C@@H]1C(=O)N2C(C(=O)[O-])=C(C[n+]3cccc4c(N)cccc43)CS[C@H]12)c1csc(N)n1

>  <READOUT UNITS>
µg/mL

>  <MIC>
0.015

$$$$
>  <MOL SMILES>
CO/N=C(\C(=O)N[C@@H]1C(=O)N2C(C(=O)[O-])=C(C[n+]3ccc4[nH]c(-c5ccccc5)nc4c3)CS[C@H]12)c1csc(N)n1

>  <READOUT UNITS>
µg/mL

>  <MIC>
0.015

$$$$
>  <MOL SMILES>
CO/N=C(\C(=O)N[C@@H]1C(=O)N2C(C(=O)[O-])=C(C[n+]3ccc(C(N)=S)cc3)CS[C@H]12)c1csc(N)n1

>  <READOUT UNITS>
µg/mL

>  <MIC>
0.03

$$$$
>  <MOL SMILES>
CO/N=C(\C(=O)N[C@@H]1C(=O)N2C(C(=O)[O-])=C(C[n+]3ccc(Cl)cc3)CS[C@H]12)c1csc(N)n1

>  <READOUT UNITS>
µg/mL

>  <MIC>
0.03

$$$$
>  <MOL SMILES>
CO/N=C(\C(=O)N[C@@H]1C(=O)N2C(C(=O)[O-])=C(C[n+]3ccc4ccoc4c3)CS[C@H]12)c1csc(N)n1

>  <READOUT UNITS>
µg/mL

>  <MIC>
0.015

$$$$

Would you kindly share the measured MIC for `CO/N=C(\C(=O)N[C@@H]1C(=O)N2C(C(=O)[O-])=C(C[n+]3cccc4c(O)cccc43)CS[C@H]12)c1csc(N)n1` ?
0.03

Lookup `CO/N=C(\C(=O)N[C@@H]1C(=O)N2C(C(=O)[O-])=C(C[n+]3ccc4[nH]c(-c5cccs5)nc4c3)CS[C@H]12)c1csc(N)n1`
0.015

Let us now turn to `CO/N=C(\C(=O)N[C@@H]1C(=O)N2C(C(=O)[O-])=C(C[n+]3cscc3C)CS[C@H]12)c1csc(N)n1`
0.06

And what about the compound `CO/N=C(\C(=O)N[C@@H]1C(=O)N2C(C(=O)[O-])=C(C[n+]3csc(CCOC=O)c3C)CS[C@H]12)c1csc(N)n1` ?
0.015

Try this compound next: `CO/N=C(\C(=O)N[C@@H]1C(=O)N2C(C(=O)[O-])=C(C[n+]3cccc4ccccc43)CS[C@H]12)c1csc(N)n1`
0.015

Try the compound `CO/N=C(\C(=O)N[C@@H]1C(=O)N2C(C(=O)[O-])=C(C[n+]3ccc4nc(C)n(C)c4c3)CS[C@H]12)c1csc(N)n1`
0.015

And `CO/N=C(\C(=O)N[C@@H]1C(=O)N2C(C(=O)O)=C(COC(C)=O)CS[C@H]12)c1csc(N)n1` ?
0.008

Can you handle `CO/N=C(\C(=O)N[C@@H]1C(=O)N2C(C(=O)[O-])=C(C[n+]3cccc4sccc43)CS[C@H]12)c1csc(N)n1` next?
0.03
